The origin of these recorded values is the RNAGym collection of RNA variant scans (doi:10.1093/molbev/msab373).

B1: Azoarcus group I ribozyme (parent)
chain: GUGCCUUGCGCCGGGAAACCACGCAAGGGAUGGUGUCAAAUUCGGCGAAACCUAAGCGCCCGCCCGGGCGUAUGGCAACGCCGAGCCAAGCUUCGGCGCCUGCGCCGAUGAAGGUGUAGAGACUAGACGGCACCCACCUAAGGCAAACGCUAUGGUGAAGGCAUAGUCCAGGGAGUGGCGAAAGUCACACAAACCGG

# Variants of: B1
# Assay procedure: reverse-splicing fitness (ratio to wild type); higher = more active; in vitro selection; Mg2+ level not given
Assign classes using reported reverse-splicing fitness values and the ranges group 1 = under 0.007, group 2 = from 0.007 up to 0.01, group 3 = 0.01 and over, please.

INSERT INTO assay_data (variant_label, answer_label) VALUES
  ('C82A A111C A145G C150A C169A U176G', 'group 2'),
  ('C82A C169G U176G', 'group 1'),
  ('A120C A145U C150A C169A U176G', 'group 1'),
  ('C82A A111C A120G A145U C169A', 'group 2'),
  ('C82A A111U C169U U176C', 'group 3');

Proceed to the following item.
For the record C82G A111G A120G A145G C150A U176C , report the class its reverse-splicing fitness corresponds to.
group 3
